Data credit: PubChem BioAssay (NCI)

tested on: NCI-H522 lung; assay: NCI tumour cell line growth inhibition, 48 h
parameter: log10(TGI) (log10 of the value in µM)
Log10 applied to TGI; unit prior to transform: µM.

Record excerpt, results attached:
# compound, log10(TGI)
data = [
    ("Cn1cc(-c2csc(-c3cn(CCN4CCOCC4)c4ccc(F)cc34)n2)c2cccnc21", 0.82),
    ("Cc1cc(-c2ccccc2)c(C)n1Cc1ccc(Cl)cc1", 0.97),
    ("CCN(CC)C(=S)SNCCc1ccc(S(N)(=O)=O)cc1", 0.67),
    ("C=C1C(=O)[C@]23[C@H](O)[C@H]1CC[C@H]2[C@@]12CO[C@@]3(O)C[C@@H]1C(C)(C)CC[C@@H]2O", 0.94),
    ("COc1cc2c(cc1OCCCCCCNC(=O)c1cc3ccccc3[nH]1)N=CC1CCCN1C2=O (stereo not given)", 1.94),
]

Ask | # input compound: `COc1cc2c(cc1OCCCCC(=O)Nc1ccc(-c3nc4ccccc4s3)cc1)N=C[C@@H]1CCCN1C2=O` ; wanted: its log10(TGI)
Reply | 0.42

Ask | # input compound: `COc1cc(C/C=C/c2ccccc2)c(OC)cc1O` ; wanted: its log10(TGI)
Reply | 1.61
